target: E2F4 1-88 (UniProt Q16254 1-88); test: ITC; error exceeds value; SPR: Biacore X100, SA chip, DNA in PBS (137 mM NaCl, 2.7 mM KCl, 10 mM Na2HPO4, 2 mM KH2PO4, pH 7.4), protein 10-320 nM (Fig. S3D legend prints mM); ITC: 250 mM NaCl, 50 mM Tris-HCl pH 7.5; EMSA: Beyotime kit, 6% native gel; temperatures not stated; settings: protein: recombinant; tags: GST removed with 3C protease (ITC methods); pET28 His construct also described; chain copies: 2; blunt
Sequence (Q16254 1-88): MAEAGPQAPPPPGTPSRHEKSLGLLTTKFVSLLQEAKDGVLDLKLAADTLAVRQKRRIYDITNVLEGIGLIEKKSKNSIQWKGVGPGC
pKd: −log10 of the molar value.
measured_property: pKd

[
  {
    "binder": "Cp2-mut (ITC) (dsDNA) DNA 1: TTAGATTAAATTTCTTTGT DNA 2: ACAAAGAAATTTAATCTAA",
    "numeric_value": 4.71
  }
]
